Reference for the values: PubChem BioAssay (NCI)

System: HCT-116 colon
Experiment: NCI-60 one-dose screen, 48 h
Settings: 10 µM unless noted
The panel holds about 83,000 compounds, 20% with a hit somewhere; the sample as a whole holds those more often. Calls of active or inactive are those of the source. How the source made its calls: active means growth percent below 10; inactive means the rest.
Permitted responses: T for active, F for inactive

These recorded examples may help you get a feel for the data.
Dear colleague, could you share the recorded outcome for `C=C1C(=O)O[C@H]2[C@H]1CC/C(CNC(=O)c1cc3ccccc3[nH]1)=C\CC[C@@]1(C)O[C@@H]21` when you have a moment?
T

Record request — test call for `NC(=O)c1ccc(NC(=O)c2oc3ccccc3c2-c2cnn(-c3ccccc3)c2)cc1`
T

Further cases:
Tell me the recorded outcome of this test for `CCCCCCCCCCCCCCCCCCOc1ccccc1CC(=O)OCC[N+]1(C)CCOCC1` .
F

GET /call?item= `CCOC(=O)c1c(-c2ccc(Cl)cc2)c(C#N)c2c(C#N)c(N)nn2c1N` returns the recorded outcome of this test.
F

Hello, I am checking results. What call was entered for O=C1CCC(C(=O)NN(c2ccccc2)c2ccccc2)N1 (stereo not drawn) ?
F

Could you please tell me the result logged for `CS(=O)(=O)Cc1cnc(C2OCCO2)s1` in this assay?
F

Recorded test call requested for COC(c1ccc2ccccc2c1)C(C)C(F)F (stereo not drawn)
F

Query: recorded result category for `O=C1Nc2ccccc2/C1=C/c1cn(C[C@@H](O)Cn2c3ccccc3c(=O)c3ccccc32)c2ccccc12` in this test
F

What did this assay record as the result for COC(=O)C1=C(C(=O)Nc2cccnc2)C2OC1(C(Cc1ccccc1)Oc1ccccc1)C1OC21 (stereo not drawn) ?
T

Per the assay record, what outcome was assigned to `CC[C@]12C=CCN3CC[C@@]4(c5ccc(OC)cc5N(C)[C@H]4[C@@](O)(C(=O)OC)[C@@H]1OC(=O)CCCN1CCOCC1)[C@@H]32` ?
F

# outcome recorded in this test, key = `N#CCC1=NC(c2cccs2)=Nc2ccccc2S1`
F

// return assay outcome for `O=c1nc(Nc2nc3ccccc3s2)[nH]c(=O)c2ccccc12`
F

Dear colleague, could you share the recorded outcome for `COc1cc2oc(-c3cccc(NC(=O)c4ccc5c(c4)OCO5)c3)cc(=O)c2c(OC)c1OC` when you have a moment?
F

Name the outcome recorded for `NS(=O)(=O)c1ccc(N/C=C/C(=O)c2cc3ccccc3oc2=O)cc1` in the assay.
F

Short answer needed: outcome of this test for `O=C(Nc1cccc(NC(=O)C2CCCCC2)c1)c1ccccn1` ?
F

Would you mind telling me which call this test gave `Cc1ncc(C(=O)Nc2ccc(CN3CCN(C)CC3)c(C(F)(F)F)c2)cc1C#Cc1cnc(N)c2cnccc12` ?
T

What is the recorded call for this compound in the test? COC(=O)/C(CCC=C(C)C)=C1\[C@@H](OC(C)=O)C[C@@]2(C)[C@H]1CC(=O)[C@H]1[C@@]3(C)CCC(N4CCCC4)[C@@H](C)[C@@H]3CC[C@@]12C (stereo partly drawn)
F

How was `COc1cc2c3c(n(CCCCNCCCn4c5c(c6cc(OC)c(OC)cc6c4=O)C(=O)c4cc6c(cc4-5)OCO6)c(=O)c2cc1OC)-c1cc2c(cc1C3=O)OCO2` classified in this test?
F
